Examples of binders with documented Maximum mean fluorescence intensity follow.
# Assay Target: T1, human MSLN-R3 protein (Met487-Ser606 of NCBI AAH09272.1) expressed on HEK293T-hMSLN-R3 cells (human, UniProt Q13421 487-606)
# T1 construct: also called Region3
# T1 sequence (Q13421 495-614): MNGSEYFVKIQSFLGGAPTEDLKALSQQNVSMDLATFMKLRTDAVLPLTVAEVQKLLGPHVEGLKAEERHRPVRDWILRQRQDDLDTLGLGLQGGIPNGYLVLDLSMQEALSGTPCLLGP
# Assay Method Text: FACS on HEK293T-hMSLN-R3 cells;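 note: flow cytometry binding of test chimeric antibodies to cells after 2 h incubation on ice, with values derived from the mean fluorescence intensity of the cells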

## Input Report Maximum mean fluorescence intensity for S009-F7.53.2 (antibody, human IgG1, kappa, V domains shown, human-murine chimeric antibody, human IgG1/kappa constant regions) VH: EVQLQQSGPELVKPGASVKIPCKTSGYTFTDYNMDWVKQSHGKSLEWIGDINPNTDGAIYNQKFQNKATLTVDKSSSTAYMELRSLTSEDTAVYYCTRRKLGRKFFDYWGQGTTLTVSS VL: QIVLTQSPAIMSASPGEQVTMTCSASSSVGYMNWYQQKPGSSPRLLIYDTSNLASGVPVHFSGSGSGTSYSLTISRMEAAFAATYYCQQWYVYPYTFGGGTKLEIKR please.
## Output 6480

## Input Entry to check: S009-F7.23.19 (antibody, human IgG1, kappa, V domains shown, human-murine chimeric antibody, human IgG1/kappa constant regions) VH: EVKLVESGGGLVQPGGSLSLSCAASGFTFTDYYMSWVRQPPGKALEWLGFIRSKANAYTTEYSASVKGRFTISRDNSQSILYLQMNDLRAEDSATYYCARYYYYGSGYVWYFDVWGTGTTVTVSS VL: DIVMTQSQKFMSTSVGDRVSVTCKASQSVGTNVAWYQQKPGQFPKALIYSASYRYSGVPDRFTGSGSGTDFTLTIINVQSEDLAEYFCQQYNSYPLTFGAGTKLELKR
## Output 6570

## Input Now the same for S009-F7.18.10 (antibody, human IgG1, kappa, V domains shown, human-murine chimeric antibody, human IgG1/kappa constant regions) VH: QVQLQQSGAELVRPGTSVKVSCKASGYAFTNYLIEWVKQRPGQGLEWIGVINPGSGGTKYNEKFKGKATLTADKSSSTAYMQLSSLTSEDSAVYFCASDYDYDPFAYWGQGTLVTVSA VL: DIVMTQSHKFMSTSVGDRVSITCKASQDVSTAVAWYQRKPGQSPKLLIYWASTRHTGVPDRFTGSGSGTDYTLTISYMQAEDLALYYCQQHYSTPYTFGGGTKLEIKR
## Output 39

## Input Likewise for S009-F7.67.12 (antibody, human IgG1, kappa, V domains shown, human-murine chimeric antibody, human IgG1/kappa constant regions) VH: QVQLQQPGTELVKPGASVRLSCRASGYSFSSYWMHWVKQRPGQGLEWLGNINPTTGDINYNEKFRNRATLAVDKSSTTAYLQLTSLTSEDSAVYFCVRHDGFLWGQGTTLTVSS VL: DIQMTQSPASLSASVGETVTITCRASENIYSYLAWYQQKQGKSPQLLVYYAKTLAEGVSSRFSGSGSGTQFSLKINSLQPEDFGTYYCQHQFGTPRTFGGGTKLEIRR ?
## Output 6930

## Input # iterate: S009-F7.21.16 (antibody, human IgG1, kappa, V domains shown, human-murine chimeric antibody, human IgG1/kappa constant regions) VH: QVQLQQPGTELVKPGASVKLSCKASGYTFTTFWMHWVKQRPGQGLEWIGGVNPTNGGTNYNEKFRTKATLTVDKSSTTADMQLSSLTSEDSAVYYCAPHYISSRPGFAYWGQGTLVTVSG VL: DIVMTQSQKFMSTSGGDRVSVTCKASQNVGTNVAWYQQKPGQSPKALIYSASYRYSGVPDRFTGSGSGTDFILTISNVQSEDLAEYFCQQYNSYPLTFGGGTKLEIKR
## Output 6820

## Input Field entry: S009-F7.25.19 (antibody, human IgG1, kappa, V domains shown, human-murine chimeric antibody, human IgG1/kappa constant regions) VH: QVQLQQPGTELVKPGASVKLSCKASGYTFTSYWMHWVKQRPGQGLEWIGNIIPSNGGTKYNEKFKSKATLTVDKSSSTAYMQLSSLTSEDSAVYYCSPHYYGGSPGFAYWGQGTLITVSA VL: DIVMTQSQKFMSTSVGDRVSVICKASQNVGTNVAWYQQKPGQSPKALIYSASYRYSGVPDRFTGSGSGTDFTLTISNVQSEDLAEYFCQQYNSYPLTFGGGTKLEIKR
## Output 5350

## Input Cool, now S009-F7.65.13 (antibody, human IgG1, kappa, V domains shown, human-murine chimeric antibody, human IgG1/kappa constant regions) VH: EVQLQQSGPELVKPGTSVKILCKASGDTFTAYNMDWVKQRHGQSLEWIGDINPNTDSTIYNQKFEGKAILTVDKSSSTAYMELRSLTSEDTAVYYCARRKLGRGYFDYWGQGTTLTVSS VL: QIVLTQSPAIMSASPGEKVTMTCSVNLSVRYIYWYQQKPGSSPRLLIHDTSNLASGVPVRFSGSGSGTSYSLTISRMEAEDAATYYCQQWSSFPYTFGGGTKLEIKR
## Output 6490

## Input Note, next up: S009-F7.44.20 (antibody, human IgG1, kappa, V domains shown, human-murine chimeric antibody, human IgG1/kappa constant regions) VH: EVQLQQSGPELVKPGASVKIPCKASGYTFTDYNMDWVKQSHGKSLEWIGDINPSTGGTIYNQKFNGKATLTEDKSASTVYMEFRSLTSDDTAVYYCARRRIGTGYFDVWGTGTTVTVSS VL: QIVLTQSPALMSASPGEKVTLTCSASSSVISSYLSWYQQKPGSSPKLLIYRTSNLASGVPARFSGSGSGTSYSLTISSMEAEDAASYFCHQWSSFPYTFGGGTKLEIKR
## Output 7470

---
## Input What value of Maximum mean fluorescence intensity has been reported for the following binder? S009-F7.48.1 (antibody, human IgG1, kappa, V domains shown, human-murine chimeric antibody, human IgG1/kappa constant regions) VH: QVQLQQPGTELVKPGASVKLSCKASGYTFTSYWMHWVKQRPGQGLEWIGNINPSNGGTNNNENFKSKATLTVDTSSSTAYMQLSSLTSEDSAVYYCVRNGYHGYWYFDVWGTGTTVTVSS VL: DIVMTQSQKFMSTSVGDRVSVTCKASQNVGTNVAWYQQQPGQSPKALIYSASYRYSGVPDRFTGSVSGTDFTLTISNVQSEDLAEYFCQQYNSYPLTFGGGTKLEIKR
## Output 5150

## Input Can you handle S009-F7.11.11 (antibody, human IgG1, kappa, V domains shown, human-murine chimeric antibody, human IgG1/kappa constant regions) VH: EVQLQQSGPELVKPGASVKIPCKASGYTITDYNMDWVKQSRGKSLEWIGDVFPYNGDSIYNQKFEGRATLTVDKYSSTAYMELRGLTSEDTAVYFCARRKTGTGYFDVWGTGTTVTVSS VL: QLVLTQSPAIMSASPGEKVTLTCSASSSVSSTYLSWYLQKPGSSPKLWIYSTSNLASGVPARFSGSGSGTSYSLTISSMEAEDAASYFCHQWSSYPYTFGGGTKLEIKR next?
## Output 6260
